Reported values of IC50 for individual entries
Target: AKT (Homo sapiens, UniProt Q9Y243)
Construct: Kinases are expressed as either kinase domains or full length constructs; made in house
Sequence (Q9Y243 whole entry, the tested form may be a part): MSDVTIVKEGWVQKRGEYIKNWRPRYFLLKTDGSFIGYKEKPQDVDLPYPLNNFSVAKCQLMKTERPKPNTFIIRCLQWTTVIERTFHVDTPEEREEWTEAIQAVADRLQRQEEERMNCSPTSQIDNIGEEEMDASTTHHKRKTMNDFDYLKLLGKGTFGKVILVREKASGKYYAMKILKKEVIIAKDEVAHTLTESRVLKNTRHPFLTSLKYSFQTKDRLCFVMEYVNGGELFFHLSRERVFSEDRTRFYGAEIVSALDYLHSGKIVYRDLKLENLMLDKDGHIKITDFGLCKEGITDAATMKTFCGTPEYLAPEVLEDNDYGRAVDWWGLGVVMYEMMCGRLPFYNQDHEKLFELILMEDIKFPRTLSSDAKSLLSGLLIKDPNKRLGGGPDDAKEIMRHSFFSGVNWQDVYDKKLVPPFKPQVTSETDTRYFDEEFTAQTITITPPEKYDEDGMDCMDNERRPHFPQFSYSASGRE
Assay: Kinase inhibition assay (33P transfer), AKT
Assay type: biochemical
Conditions: Table 2, kinase inhibition class; read-out: AKT3-1

Below, each entry is followed by its recorded IC50 result.
{"compound-structure": "COc1cc(Nc2ncnc(-n3c(NCc4ccccn4)nc4ccccc43)n2)cc(OC)c1OCCN1CCOCC1", "reported-value": "> 7.71 µM"}
{"compound-structure": "COc1cc(Nc2ncnc(-n3cnc4ccccc43)n2)cc(OC)c1OC", "reported-value": "> 11.9 µM"}
{"compound-structure": "O=c1[nH]c2ccccc2n1-c1ncnc(Nc2cccc3cccnc23)n1", "reported-value": "> 12.7 µM"}
{"compound-structure": "COc1cc(Nc2ncnc(N3CCc4cc([N+](=O)[O-])ccc43)n2)cc(OC)c1OC", "reported-value": "> 10.6 µM"}
{"compound-structure": "CC(C)(C)c1cc(Nc2ncnc(Nc3cccc(Cl)c3)n2)[nH]n1", "reported-value": "> 13.1 µM"}

// query State its IC50 on AKT (Homo sapiens, UniProt Q9Y243): `CC(C)(C)OC(=O)Nc1ccc(Nc2ncnc(Nc3ccc(OCc4ccccc4)cc3)n2)cc1`
// result 7.22 to 9.29 µM

// query Kindly state the measured IC50 obtained for `COC(=O)c1ccc(Nc2ncnc(-c3ccccc3)n2)cc1` with AKT (Homo sapiens, UniProt Q9Y243).
// result > 14.7 µM

// query Quick check: IC50 on AKT (Homo sapiens, UniProt Q9Y243), item `NC(=O)Cc1cccc(Nc2ncnc(-n3c(N)nc4ccccc43)n2)c1` ?
// result > 12.5 µM

----------
# collection of pIC50 values tested on Fyn (Homo sapiens)
# Sequence (P06241 whole entry, species assumed): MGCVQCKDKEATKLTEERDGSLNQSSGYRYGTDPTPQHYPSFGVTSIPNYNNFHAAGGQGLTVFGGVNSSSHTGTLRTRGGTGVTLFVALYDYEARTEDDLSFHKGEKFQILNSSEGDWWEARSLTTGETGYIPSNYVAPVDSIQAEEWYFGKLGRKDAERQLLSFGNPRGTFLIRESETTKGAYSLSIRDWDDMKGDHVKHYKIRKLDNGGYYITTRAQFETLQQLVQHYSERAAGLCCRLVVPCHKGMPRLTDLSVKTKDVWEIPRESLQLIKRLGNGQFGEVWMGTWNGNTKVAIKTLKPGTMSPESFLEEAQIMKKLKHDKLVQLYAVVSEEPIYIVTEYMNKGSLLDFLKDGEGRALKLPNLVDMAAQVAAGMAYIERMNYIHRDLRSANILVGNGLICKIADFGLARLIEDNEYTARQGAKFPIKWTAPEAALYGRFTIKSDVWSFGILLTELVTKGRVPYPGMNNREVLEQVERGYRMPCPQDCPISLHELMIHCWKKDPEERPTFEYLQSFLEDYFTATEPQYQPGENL
pIC50: −log10 of the molar value.

{"compound-structure": "COc1cc(Nc2ncnc(Nc3cccc(F)c3)n2)cc(OC)c1OC", "pIC50": "> 5.97"}
{"compound-structure": "Cc1cccc(Nc2ncnc(Nc3ccc4[nH]ncc4c3)n2)c1", "pIC50": "5.12 to 5.90"}
{"compound-structure": "COc1cc(Nc2ncnc(Nc3ccc(C)cc3)n2)cc(OC)c1OC", "pIC50": "> 5.96"}
{"compound-structure": "COc1cc(Nc2ncnc(Nc3ccc(Br)cc3F)n2)cc(OC)c1OC", "pIC50": "5.27 to 6.05"}

// query Write down the reported pIC50 of `COc1cc(Nc2ncnc(Nc3ccc(F)c(Cl)c3)n2)cc(OC)c1OC` , test system: Fyn (Homo sapiens).
// result > 6.01

// query State its pIC50 on Fyn (Homo sapiens): `COc1cc(Nc2ncnc(N(C)c3cccc(Cl)c3)n2)cc(OC)c1OC`
// result 5.22 to 6.00

// query Lab note: need pIC50 with Fyn (Homo sapiens) for entry `CCOc1ccc(Nc2ncnc(Nc3ccc(C)c(O)c3)n2)cc1OCC` , please look it up.
// result > 5.98

// query For Fyn (Homo sapiens), provide pIC50 of `COCCOc1ccc(Nc2ncnc(Nc3ccc4[nH]ccc4c3)n2)cc1OCCOC` please.
// result < 5.00

----------
Target: Zap-70 (Homo sapiens, UniProt P43403)
Construct: Kinases are expressed as either kinase domains or full length constructs; made in house
Sequence (P43403 1-619): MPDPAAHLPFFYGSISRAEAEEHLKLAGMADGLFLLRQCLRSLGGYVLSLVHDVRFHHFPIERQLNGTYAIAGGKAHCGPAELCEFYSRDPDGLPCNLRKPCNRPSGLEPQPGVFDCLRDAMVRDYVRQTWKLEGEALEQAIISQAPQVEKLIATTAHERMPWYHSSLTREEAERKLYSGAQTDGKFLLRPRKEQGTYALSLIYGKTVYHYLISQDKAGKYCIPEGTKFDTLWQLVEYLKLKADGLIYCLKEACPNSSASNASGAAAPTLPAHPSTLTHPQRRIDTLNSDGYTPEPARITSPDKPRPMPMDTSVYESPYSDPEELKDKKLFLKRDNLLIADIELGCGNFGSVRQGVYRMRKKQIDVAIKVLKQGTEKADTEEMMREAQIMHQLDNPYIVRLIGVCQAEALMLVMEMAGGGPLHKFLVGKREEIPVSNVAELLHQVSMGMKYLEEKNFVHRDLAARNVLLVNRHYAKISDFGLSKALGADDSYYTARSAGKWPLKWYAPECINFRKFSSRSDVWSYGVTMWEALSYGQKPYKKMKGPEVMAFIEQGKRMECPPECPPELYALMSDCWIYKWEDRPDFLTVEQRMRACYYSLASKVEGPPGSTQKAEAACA
Test: Kinase inhibition assay (33P transfer), Zap-70
Type: biochemical
Conditions: Table 3; read-out: Zap-1
Source text: The inhibitor compounds described herein are screened in the following manner. […] Kinases are expressed as either kinase domains or full length constructs fused to glutathione S-transferase (GST) or polyHistidine tagged fusion proteins in either E. colior Baculovirus-High Five expression systems. […]
parameter-measured: IC50

Examples with their reported IC50 follow.
{"compound-structure": "Oc1ccc(Nc2ncnc(Nc3ccc(OCc4ccccc4)cc3)n2)cc1", "IC50": "1.04 to 6.23 µM"}
{"compound-structure": "COc1cc(Nc2ncnc(Nc3ccc4[nH]ccc4c3)n2)cc(OC)c1OC", "IC50": "> 11.5 µM"}
{"compound-structure": "c1ccc(-c2ncnc(Nc3ccc(OCCCN4CCOCC4)cc3)n2)cc1", "IC50": "> 11.5 µM"}
{"compound-structure": "COc1cc(Nc2ncnc(-n3c(N(C)C)nc4ccccc43)n2)cc(OC)c1OC", "IC50": "> 10.7 µM"}
{"compound-structure": "COc1cc(Nc2ncnc(Nc3ccncc3)n2)cc(OC)c1OC", "IC50": "> 12.7 µM"}

// query Quick one: IC50 of `COc1cc(Nc2ncnc(NC(=O)Nc3ccccc3)n2)cc(OC)c1OC` ?
// result 8.83 to 11.4 µM

// query Can you look up the measured IC50 of `NC(=O)c1cccc(Nc2ncnc(-n3c(=O)[nH]c4ccccc43)n2)c1` for me?
// result > 13 µM

// query Reported IC50, compound `COc1cc(Nc2ncnc(Nc3ccc(C)c(F)c3)n2)cc(OC)c1OC` : ____
// result > 11.7 µM

// query Given `COc1ccc(Nc2ncnc(Nc3ccc(C)c(O)c3)n2)cc1OC` , state its recorded IC50.
// result > 12.7 µM

// query Which value of IC50 has been reported for `COc1cc(Nc2ncnc(-n3c(Nc4ccc(C(C)C)cc4)nc4ccccc43)n2)cc(OC)c1OC` in the records?
// result > 8.8 µM

// query # IC50 lookup, item `C=CCNc1cc(-c2ncnc(Nc3cc(OC)c(OC)c(OC)c3)n2)ccn1`
// result > 11.4 µM

// query Reported IC50, compound `N#Cc1ccc(Nc2ncnc(-c3cccs3)n2)cc1` : ____
// result > 16.1 µM

// query IC50 for `COc1ccc(Nc2ncnc(Nc3ccc(Br)cc3F)n2)cc1OC` ?
// result 8.33 to 10.7 µM

// query Would you mind telling me what IC50 value was observed for `COc1cc(Nc2ncnc(-c3cc4ccccc4s3)n2)cc(OC)c1OC` ?
// result > 11.4 µM

// query // lookup IC50 for `COc1cc(Nc2ncnc(Nc3cc(-c4ccco4)n[nH]3)n2)cc(OC)c1OC`
// result > 11 µM

// query Consider the compound `COCCOc1ccc(Nc2ncnc(Nc3ccc4[nH]ccc4c3)n2)cc1OCCOC` and give its measured IC50.
// result > 9.99 µM

// query IC50 lookup needed for `COc1cc(Nc2ncnc(Nc3ccc(S(=O)(=O)NC(C)=O)cc3)n2)cc(OC)c1OC` , thanks.
// result > 9.48 µM

// query If you can, please state the reported IC50 value of `COc1cc(Nc2ncnc(Nc3cc(-c4cccs4)n[nH]3)n2)cc(OC)c1OC` .
// result > 10.6 µM

// query Quick one: IC50 of `COc1ccc(Nc2ncnc(Nc3cccc(C)c3)n2)cc1OC` ?
// result > 13.3 µM
